# System: MALME-3M melanoma
# assay-notes: NCI tumour cell line growth inhibition, 48 h
Assign satisfied to entries whose TGI meets or exceeds 30 µM; assign not satisfied to the rest.

Answered examples (5):
Threshold query (TGI >= 30 µM) on `COc1cc(OC)cc(-c2ccc(-c3ccc(C(=N)N)cn3)o2)c1` not satisfied

Is TGI at least 30 µM? Consider `CCCCn1c(CSc2ccc(Cl)cc2)c(C(=O)OCC)c2cc(OC)c(Br)cc21` satisfied

Answer whether TGI of `Cc1cccc(Br)[n+]1[O-]` is greater than or equal to 30 µM. satisfied

Could you please find out whether `Cc1ccc(C(=O)Nc2ccc(CP(=O)(O)O)cc2)cc1NC(=O)c1cccc(N)c1` has TGI that meets 30 µM or exceeds it? satisfied

Please indicate if the recorded TGI for `CCOC(=O)/C=C(\C(=O)OCC)n1ccc(=O)n(Cc2cnnn2CCCCOC(C)=O)c1=O` meets or exceeds 30 µM. not satisfied

Others:
Can `O=C1C(=O)N(c2ccc(Cl)cc2)C(=O)C(=O)C1c1nc2ccccc2o1` be said to have TGI at or above 30 µM? satisfied

Assess whether reported TGI for `C=CCN1/C(=C(\C#N)c2nc3ccccc3[nH]2)Sc2c1nc[nH]c2=O` sits at 30 µM or higher. satisfied

Test whether the molecule `COc1cccc(/C=C/C(=O)c2ccc(SC)cc2)c1OC` records TGI of 30 µM or higher. satisfied

Textbook exercise: given the entry `CC1=C2CC(C)(C)/C=C\C(=O)/C(C)=C\C3=C[C@H](C)C[C@]3(O2)C1=O` , state whether its TGI is greater than or equal to 30 µM. not satisfied

Hi team, for N#CC1(C#N)NC(c2ccccc2)C(C#N)(C#N)NC1c1ccccc1 (stereo unspecified) , is the recorded TGI at or above 30 µM? satisfied

Quick check: does `CC(=O)/C(=C/c1ccccc1)C(=O)CC(C)C` have TGI greater than or equal to 30 µM? satisfied

* * *

# Test system: M14 melanoma
# assay-notes: NCI tumour cell line growth inhibition, 48 h
reported-metric: GI50

Can you share its GI50? I mean this compound: COc1cc(C2CC(c3cccc(Nc4ccnc5cc(Cl)ccc45)c3)=NN2c2ccc(Cl)cc2)cc(OC)c1OC (centres undefined) 0.63 µM

* * *

# Tested on: RXF-631 renal
# assay-notes: NCI tumour cell line growth inhibition, 48 h
reported-metric: TGI

Missing value: TGI, RXF-631 renal, entry `CCOC(=O)C(=O)Nc1nc2c(OCC)cccc2s1` . Fill in? > 100 µM

Return TGI measured with RXF-631 renal given this compound: COc1ccc(/C(=N\NC(=O)NN)C(c2ccc(OC)cc2)C2(O)C(=O)Nc3c(Cl)cc(Cl)cc32)cc1 (stereo unspecified) > 100 µM

Recall the recorded TGI for CSCS(=O)C[C@H](CO)NC(=O)/C=C/c1c(C)[nH]c(=O)[nH]c1=O (stereo partly specified) with RXF-631 renal and state it. 14.7 µM

Param readout= TGI; system= RXF-631 renal; entry= COc1cc2c(c(OC)c1OC)-c1ccc(SC)c(=O)cc1C(CC(=O)Oc1cccc([N+](=O)[O-])c1)C2 (stereo unspecified) ; returns value. 12.8 µM

Continuing:
Give recorded TGI with RXF-631 renal for the following compound: `CC(C)C(=O)N1Cc2cc(Cl)cc(Cl)c2OC(=O)c2ccccc21` > 100 µM

# value lookup — system RXF-631 renal, readout TGI, item `Cc1c2ccn(O)cc2c(C)c2c1nc1ccccc12` > 100 µM

* * *

# System: SF-268 CNS
# assay-notes: NCI tumour cell line growth inhibition, 48 h; in the data active = GI50 below about 0.43 µM; inactive = the rest
Outcome field: choose from true (active), false (inactive)

Which outcome did this test record for the compound O=C(CC1(O)C(=O)N(Cc2ccccc2)c2ccc(Cl)cc21)c1ccc(C(=O)NCC2CCC3(CC2)OOC2(CCCCC2)OO3)cc1 (stereo not drawn) ? false

Tell me the recorded outcome of this test for `CCC[CH2][Sn]([CH2]CCC)([O]c1cccc2cccnc12)[O]c1cccc2cccnc12` . true

More entries:
Hey, what did the test say about `Nc1c(C(=O)Nc2ccccc2)sc2nc3c(cc12)CCCCC3` ? false

* * *

# Test system: HS 578T breast
# assay-notes: NCI tumour cell line growth inhibition, 48 h
Entries and their TGI values follow.

Requested read-out: TGI. Entry: CCOC(=O)C(NC(=O)c1ccccc1)(Nc1ccc(S(=O)(=O)Nc2ncccn2)cc1)C(F)(F)F (stereo not given) > 100 µM

Which TGI value belongs to `O=C(CN(C(=O)OC12CC3CC(CC(C3)C1)C2)C(=O)OC12CC3CC(CC(C3)C1)C2)Oc1ccc([N+](=O)[O-])cc1` ? > 100 µM

Give the measured TGI of C=C1CC2(CC(c3ccccc3Cl)OC(c3ccccc3Cl)C2)OC1=O (stereo not given) . 4.71 µM

I'd like to know its TGI. The compound in question is `CC(=O)c1[nH]c(NC(C)C)c(C(=S)Nc2ccccc2)c1N` > 100 µM

What does the data say about its TGI? Entry: `Nc1ccc2[nH]c(-c3cccc(C(F)(F)F)c3)cc(=O)c2c1` 65.6 µM

Item `Cc1c2ccn(O)cc2c(C)c2c1nc1ccccc12` has what recorded TGI? 8.44 µM

Tell me the measured TGI of `CCOC(=O)NN(C(=O)OCC)C(C(=O)C1=CCCCC1)N(NC(=O)OCC)C(=O)OCC` , please. > 100 µM

Could you share which TGI value was measured for C[C@@]1(C(=O)O)CCC[C@]2(C)C1CC[C@@]13C[C@@](O)(CC[C@]12O)[C@@]1(CO1)C3 (stereo not given in full) ? > 100 µM

What does the record list as TGI for `COc1ccc2c3c(Nc4cccc(/C(C)=N\O)c4)[nH]c4ccccc4c-3c(N=O)c2c1` ? > 100 µM

Recorded TGI for `CSc1nc(C)cc(Nc2ccc(O)c(CN3CCOCC3)c2)n1` , please? > 100 µM

* * *

# Tested on: SF-295 CNS
# assay-notes: NCI tumour cell line growth inhibition, 48 h; in the data active = GI50 below about 0.43 µM; inactive = the rest
Hi! Could you answer with just one of these? active, inactive

Some solved cases for reference:
Test call, this compound: `CSc1c(C2=C(c3cn(C)c4ccccc34)C(=O)NC2=O)c2ccccc2n1C` inactive

Hi, sorry to bother you, what did the test record for CCCCC(CCCCCC(CCCC)NCc1ccc2c(c1)OCO2)NCc1ccc2c(c1)OCO2 (centres undefined) ? inactive

Hello, I am checking results. What call was entered for `Cc1nc2c(c(N3CCCc4ccccc43)n1)CCC2` ? active

Per the assay record, what outcome was assigned to `Cc1c(O)c(N=Nc2nc3ccccc3s2)c2ccccc2c1O` ? inactive

Hey, what did the test say about O=C(CC1(O)C(=O)N(Cc2ccccc2)c2ccc(Cl)cc21)c1ccc(C(=O)NCC2CCC3(CC2)OOC2(CCCCC2)OO3)cc1 (centres undefined) ? inactive

Further cases:
Field: outcome | Entry: `CCCCCCCCCCCCCCCCCc1nccn1CCOCCO` inactive

Field: outcome | Entry: `COc1ccc2c3c(Nc4cccc(/C(C)=N\O)c4)[nH]c4ccccc4c-3c(N=O)c2c1` inactive

Could you kindly confirm the outcome this assay logged for C[C@@]1(C(=O)O)CCC[C@]2(C)C1CC[C@@]13C[C@@](O)(CC[C@]12O)[C@@]1(CO1)C3 (some centres undefined) ? inactive

Identify the outcome logged in this assay for the compound shown: CSCS(=O)C[C@H](CO)NC(=O)/C=C/c1c(C)[nH]c(=O)[nH]c1=O (some centres undefined) active

What is the recorded call for this compound in the test? `Oc1ccc(Nc2ccc3ccccc3c2)cc1` inactive

I'd appreciate the recorded outcome for `CCN1CCC(Nc2ccnc3cc(Cl)ccc23)CC1` from this test. inactive

Any idea what this test logged for `CCCc1n(Cc2ccc3ccccc3c2)cc[n+]1Cc1ccc2ccccc2c1` ? inactive

Tell me the assay call for `COc1cc(OC)cc(-c2ccc(-c3ccc(C(=N)N)cn3)o2)c1` please. inactive

Each compound tested received a call. Report the one for `O=c1oc2ccc(I)cc2c(=O)n1-c1ccc(F)cc1F` . inactive

* * *

# System: RPMI-8226 leukemia
# assay-notes: NCI tumour cell line growth inhibition, 48 h
# GI50 values compiled below

Some solved entries appear below for comparison.
Provide the documented GI50 with RPMI-8226 leukemia as the system for `O=C1/C(=C/c2ccccc2)CN(C(=O)C(Cl)Cl)C/C1=C\c1ccccc1` 0.0474 µM

Recorded GI50 for `N#Cc1c(NCc2ccccc2)nc(NCc2ccccc2)c(C#N)c1-c1ccc(O)cc1` with RPMI-8226 leukemia, please? 21.9 µM

API: value(readout= GI50, system= RPMI-8226 leukemia, query= `CCCCCCCCCCCCCCCCCc1nccn1CCOCCO` ) 3.87 µg/mL

Identify the measured GI50 of `CC1CCN(Cc2ccc(NC(=O)c3cc4ccc5cccnc5c4[nH]3)cc2)CC1` for RPMI-8226 leukemia. 2.58 µM

Request - read-out GI50 | tested on RPMI-8226 leukemia | molecule `CCCCOC(=O)c1ccc(N)cc1` 67.2 µM

Further cases:
Return GI50 measured with RPMI-8226 leukemia given this molecule: `COc1ccc2c3c(Nc4cccc(/C(C)=N\O)c4)[nH]c4ccccc4c-3c(N=O)c2c1` 25.5 µM

Provide the documented GI50 with RPMI-8226 leukemia as the system for `Cn1c(=O)c(Oc2ccc(F)cc2F)cc2cnc(NC(C)(C)CO)nc21` > 25 µM

GET /values?readout=GI50&system=RPMI-8226 leukemia&item= `CCN1CCC(Nc2ccnc3cc(Cl)ccc23)CC1` 25.9 µM

# query: GI50 | item NC(=NCc1ccccc1)C(N=Nc1ccccc1)C(=O)NCc1ccccc1 (stereo unspecified) | system: RPMI-8226 leukemia 9.31 µM

Form entry - test system: RPMI-8226 leukemia; read-out: GI50; molecule: `Oc1ccc(O)c(-c2cn3c(n2)SCC3)c1` 4.08 µM

Query for RPMI-8226 leukemia: what GI50 does the record show for `C=C(CN1CCN(c2ccc(C(F)(F)F)cc2)CC1)c1ccc(C(=O)Nc2ccccc2N)cc1` ? 0.405 µM
